# test-target: T1, 4H741-bN
# T1 chain: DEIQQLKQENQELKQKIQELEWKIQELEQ
# procedure-text: two-hybrid library CCNG1;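 note: natural log of median RNA to DNA barcode read ratio; higher means stronger binding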
quantity: interaction score

DEIQQLEQKNQELKQKIQELKWENQELKQ [4H492-bN]    -0.326
DKNQQLEQENQELKQEIQELKWKIQELEQ [4H3277-bN]    -0.405
DEIQQLEQKNQELKQENQELKWKIQELEQ [4H477-bN]    -1.17

1: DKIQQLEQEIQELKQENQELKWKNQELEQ [4H2143-bN]
2: DKIQQLEQKNQELEQEIQELEWKIQELKQ [4H2438-bN]
Ask | # argmax over interaction score for candidates 1 and 2 Give the label of your selection.
Reply | 2
(2: -0.278, 1: -0.465)

a: DKIQQLKQENQELEQENQELKWKIQELEQ [4H2717-bN]
b: DKIQQLKQKIQELEQENQELEWKNQELEQ [4H2839-bN]
Ask | # argmax over interaction score for candidates a and b Give the label of your selection.
Reply | b

The reported numbers originate from paper PMC10397247.
